- TARGET_OR_TEST_SYSTEM: Heparanase (Homo sapiens, UniProt Q9Y251)
- Sequence (Q9Y251 36-109 limits assumed): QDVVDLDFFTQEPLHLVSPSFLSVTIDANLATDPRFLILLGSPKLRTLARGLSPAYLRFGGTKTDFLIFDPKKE
- Sequence (Q9Y251 158-543 limits assumed): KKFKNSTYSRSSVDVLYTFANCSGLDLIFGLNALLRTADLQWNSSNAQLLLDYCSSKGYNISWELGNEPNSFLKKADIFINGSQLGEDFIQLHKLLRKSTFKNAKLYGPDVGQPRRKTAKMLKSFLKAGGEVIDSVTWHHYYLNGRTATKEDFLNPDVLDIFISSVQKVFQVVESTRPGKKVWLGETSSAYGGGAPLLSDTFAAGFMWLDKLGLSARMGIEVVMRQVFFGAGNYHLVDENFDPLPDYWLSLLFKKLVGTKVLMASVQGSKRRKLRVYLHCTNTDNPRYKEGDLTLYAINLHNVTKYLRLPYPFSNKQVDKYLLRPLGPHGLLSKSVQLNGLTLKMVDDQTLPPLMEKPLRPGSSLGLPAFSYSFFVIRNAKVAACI
- ASSAY_OVERVIEW: Inhibition of recombinant human heparanase assessed as fondaparinux cleavage by measuring disaccharide by colorimetric analysis
MEASURED_PARAMETER: pIC50
pIC50 here: minus log base 10 of the concentration, concentration in moles per litre.

# CHEM_SMILES, pIC50
records = [
    ("CO[C@H]1O[C@H](COS(=O)(=O)O)[C@@H](O[C@H](O[C@H](C(=O)O)[C@H](O[C@H]2O[C@H](COS(=O)(=O)O)[C@@H](OC)[C@H](O)[C@H]2NS(=O)(=O)O)C(=O)O)C(=O)O)[C@H](O)[C@H]1NS(=O)(=O)O", 4.15),
]

Okay, next one:
INPUT: Item CO[C@H]1O[C@H](COS(=O)(=O)O)[C@@H](O[C@@H](CO)O[C@H](C(=O)O)[C@@H](CO)O[C@H]2O[C@H](COS(=O)(=O)O)[C@@H](OC)[C@H](O)[C@H]2NS(=O)(=O)O)[C@H](O)[C@H]1NS(=O)(=O)O : provide pIC50
OUTPUT: 4.11

---

Measured pIC50 of individual entries
- TARGET_OR_TEST_SYSTEM: Heparanase (Homo sapiens, UniProt Q9Y251)
- ASSAY_OVERVIEW: Inhibition of recombinant human heparanase assessed as fondaparinux cleavage by measuring disaccharide by colorimetric analysis
pIC50 here: minus log base 10 of the concentration, concentration in moles per litre.

A selection of reference data follows.
# CHEM_SMILES, TARGET_OR_TEST_SYSTEM, pIC50
rows = [
    ("CO[C@H]1O[C@H](COS(=O)(=O)O)[C@@H](O[C@@H](CO)O[C@@H](C(=O)O)[C@H](CO)O[C@H]2O[C@H](COS(=O)(=O)O)[C@@H](O[C@@H](CO)O[C@@H](C(=O)O)[C@H](CO)OC)[C@H](O)[C@H]2NS(=O)(=O)O)[C@H](O)[C@H]1NS(=O)(=O)O", "Heparanase (Homo sapiens, UniProt Q9Y251)", 4.20),
    ("CO[C@H]1O[C@H](COS(=O)(=O)O)[C@@H](O[C@@H](CO)O[C@@H](C(=O)O)[C@@H](CO)O[C@H]2O[C@H](COS(=O)(=O)O)[C@@H](OC)[C@H](O)[C@H]2NS(=O)(=O)O)[C@H](O)[C@H]1NS(=O)(=O)O", "Heparanase (Homo sapiens, UniProt Q9Y251)", 4.42),
]

Okay, next one:
INPUT: Look up and report pIC50, with Heparanase (Homo sapiens, UniProt Q9Y251) as system, for CO[C@H]1O[C@H](COS(=O)(=O)O)[C@@H](O[C@H](O[C@@H](C(=O)O)[C@@H](O[C@H]2O[C@H](COS(=O)(=O)O)[C@@H](O[C@H](O[C@@H](C(=O)O)[C@@H](OC)C(=O)O)C(=O)O)[C@H](O)[C@H]2NS(=O)(=O)O)C(=O)O)C(=O)O)[C@H](O)[C@H]1NS(=O)(=O)O
OUTPUT: 5.12

---

- TARGET_OR_TEST_SYSTEM: Heparanase (Homo sapiens, UniProt Q9Y251)
- ASSAY_OVERVIEW: Inhibition of recombinant human heparanase assessed as fondaparinux cleavage by measuring disaccharide by colorimetric analysis
pIC50: −log10 of the molar value.
MEASURED_PARAMETER: pIC50

A selection of reference data follows.
# CHEM_SMILES, pIC50
data = [
    ("CO[C@H]1O[C@H](COS(=O)(=O)O)[C@@H](O[C@H](O[C@@H](C(=O)O)[C@H](O[C@H]2O[C@H](COS(=O)(=O)O)[C@@H](OC)[C@H](O)[C@H]2NS(=O)(=O)O)C(=O)O)C(=O)O)[C@H](O)[C@H]1NS(=O)(=O)O", "< 4.02"),
    ("CO[C@H]1O[C@H](COS(=O)(=O)O)[C@@H](O[C@@H]2O[C@@H](C(=O)O)[C@@H](O[C@H]3O[C@H](COS(=O)(=O)O)[C@@H](OC)[C@H](O)[C@H]3NS(=O)(=O)O)[C@H](O)[C@H]2O)[C@H](O)[C@H]1NS(=O)(=O)O", "< 3.99"),
]

Okay, next one:
INPUT: Item CO[C@H]1O[C@H](COS(=O)(=O)O)[C@@H](O[C@@H]2O[C@@H](C(=O)O)[C@@H](O[C@H]3O[C@H](COS(=O)(=O)O)[C@@H](O[C@@H]4O[C@@H](C(=O)O)[C@@H](OC)[C@H](O)[C@H]4O)[C@H](O)[C@H]3NS(=O)(=O)O)[C@H](O)[C@H]2O)[C@H](O)[C@H]1NS(=O)(=O)O : provide pIC50
OUTPUT: < 4.07
